- experiment-notes: Pharmacokinetics after intravenous and oral dosing in rats
- Assay type: in vivo
- test-context: male, Wistar Han, plasma; rat, IV 0.1 mg/kg
Quick list: clearance per entry.
endpoint: clearance

1) CCC(=O)O[C@]1(C(=O)SCF)[C@H](C)C[C@H]2[C@@H]3C[C@H](F)C4=CC(=O)C=C[C@]4(C)[C@@]3(F)[C@@H](O)C[C@@]21C [Fluticasone propionate, reference compound] ... 45.2 mL/min/kg
2) C[C@@H]1C[C@H]2[C@@H]3C[C@H](F)C4=CC(=O)C=C[C@]4(C)[C@@]3(F)[C@@H](O)C[C@]2(C)[C@@]1(OC(=O)c1ccco1)C(=O)SCF [Compound of Formula (I)] ... 47.3 mL/min/kg
